Origin of the recorded values: patent US6528494B2

# target-or-system: adenosine 1 receptor (Homo sapiens)
# Sequence (P30542 1-326): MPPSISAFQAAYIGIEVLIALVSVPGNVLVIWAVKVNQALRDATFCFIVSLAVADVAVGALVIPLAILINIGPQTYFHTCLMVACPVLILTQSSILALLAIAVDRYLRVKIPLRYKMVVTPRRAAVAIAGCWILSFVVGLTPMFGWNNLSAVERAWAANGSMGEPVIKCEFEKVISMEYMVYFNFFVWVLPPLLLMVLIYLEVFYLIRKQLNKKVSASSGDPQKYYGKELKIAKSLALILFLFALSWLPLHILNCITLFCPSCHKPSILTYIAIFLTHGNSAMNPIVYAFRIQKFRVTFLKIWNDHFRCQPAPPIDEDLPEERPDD
# test: Agonist activity against adenosine 1 receptor (CHO cells, forskolin-enhanced cAMP/SPAP reporter)
# Format: cell-based
# test-settings: CHO cells transfected with human receptor; forskolin-enhanced cAMP via SPAP; mean of all the versions tested
Task for the reader: assign each of the following molecules its reported A1 EC50 as a ratio of that of NECA.
Output: the number by itself.

Documented A1 EC50 as a ratio of that of NECA of Cn1nnc(C2OC(n3cnc4c(NC(CO)Cc5ccccc5)nc(NC5CCC(N)CC5)nc43)C(O)C2O)n1 (stereo not shown) : 123

Documented A1 EC50 as a ratio of that of NECA of Cn1nnc(C2OC(n3cnc4c(NCC(c5ccccc5)c5ccccc5)nc(NC5CCNC5)nc43)C(O)C2O)n1 (stereo not shown) : 385.90

Documented A1 EC50 as a ratio of that of NECA of Cn1nnc(C2OC(n3cnc4c(NC(CO)Cc5ccccc5)nc(NC(CO)Cc5ccccc5)nc43)C(O)C2O)n1 (stereo not shown) : 3.13

Documented A1 EC50 as a ratio of that of NECA of "Cn1nnc([C@H]2O[C@@H](n3cnc4c(NCC(c5ccccc5)c5ccccc5)nc(N[C@@H]5CCC[C@H]5O)nc43)[C@H](O)[C@@H]2O)n1.O=CO" : 5177.00

Documented A1 EC50 as a ratio of that of NECA of "CCn1nnc([C@H]2O[C@@H](n3cnc4c(NCC(c5ccccc5)c5ccccc5)nc(NCCN5CCCCC5)nc43)[C@H](O)[C@@H]2O)n1.O=C(O)C(F)(F)F.O=C(O)C(F)(F)F" : 64.00

Documented A1 EC50 as a ratio of that of NECA of "CCn1nnc([C@H]2O[C@@H](n3cnc4c(N)nc(NCCc5ccc(O)cc5)nc43)[C@H](O)[C@@H]2O)n1.O=CO" : 516.4

Documented A1 EC50 as a ratio of that of NECA of Cn1nnc(C2OC(n3cnc4c(NCC(c5ccccc5)c5ccccc5)nc(NCCN5CCCCC5)nc43)C(O)C2O)n1.O=CO.O=CO (stereo not shown) : 241.4

Documented A1 EC50 as a ratio of that of NECA of CCn1nnc(C2OC(n3cnc4c(NCCN5CCCCC5)nc(NC(CO)Cc5ccccc5)nc43)C(O)C2O)n1 (stereo not shown) : 515.30

Documented A1 EC50 as a ratio of that of NECA of Cn1nnc(C2OC(n3cnc4c(NC5CCCC5)nc(NCCN5CCCCC5)nc43)C(O)C2O)n1.O=CO.O=CO (stereo not shown) : 211.8

Documented A1 EC50 as a ratio of that of NECA of "CCn1nnc([C@H]2O[C@@H](n3cnc4c(NCCc5ccccc5)nc(NCCN5CCOCC5)nc43)[C@H](O)[C@@H]2O)n1" : 158.70

----------
# target-or-system: adenosine 3 receptor (Homo sapiens)
# Sequence (P0DMS8 whole entry): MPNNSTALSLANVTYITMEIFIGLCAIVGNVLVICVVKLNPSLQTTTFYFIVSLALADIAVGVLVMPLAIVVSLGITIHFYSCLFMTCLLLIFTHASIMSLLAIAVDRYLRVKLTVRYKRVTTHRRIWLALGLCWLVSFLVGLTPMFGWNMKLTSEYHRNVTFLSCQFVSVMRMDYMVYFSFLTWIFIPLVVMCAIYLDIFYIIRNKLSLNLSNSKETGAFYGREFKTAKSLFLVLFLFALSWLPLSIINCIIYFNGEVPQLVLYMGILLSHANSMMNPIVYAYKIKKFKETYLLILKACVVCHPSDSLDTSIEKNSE
# test: Agonist activity against adenosine 3 receptor (CHO cells, forskolin-enhanced cAMP/SPAP reporter)
# Assay type: cell-based
# test-settings: CHO cells transfected with human receptor; forskolin-enhanced cAMP via SPAP; mean of all the versions tested
Task for the reader: assign each of the following compounds its reported A3 EC50 as a ratio of that of NECA.

Documented A3 EC50 as a ratio of that of NECA of "CC(C)n1nnc([C@H]2O[C@@H](n3cnc4c(N[C@H](CO)Cc5ccccc5)nc(NCCc5ccccn5)nc43)[C@H](O)[C@@H]2O)n1.O=CO" : >326

Documented A3 EC50 as a ratio of that of NECA of CCC(CC)Nc1nc(NCCN2CCOCC2)nc2c1ncn2C1OC(c2nnn(C)n2)C(O)C1O.O=CO.O=CO (centres unmarked) : >270

Documented A3 EC50 as a ratio of that of NECA of "CC(=O)O.CCn1nnc([C@H]2O[C@@H](n3cnc4c(NCCC(C)(C)C)nc(NCCc5cn(C)cn5)nc43)[C@H](O)[C@@H]2O)n1" : >42

Documented A3 EC50 as a ratio of that of NECA of CCn1nnc(C2OC(n3cnc4c(NCCc5ccccc5)nc(NC(CO)Cc5ccccc5)nc43)C(O)C2O)n1 (centres unmarked) : >155

Documented A3 EC50 as a ratio of that of NECA of CCn1nnc(C2OC(n3cnc4c(NC(CO)Cc5ccccc5)nc(NCCN5CCCCC5)nc43)C(O)C2O)n1 (centres unmarked) : >184

Documented A3 EC50 as a ratio of that of NECA of CCC(CC)Nc1nc(NCCc2ccccn2)nc2c1ncn2C1OC(c2nnn(C)n2)C(O)C1O.O=CO.O=CO (centres unmarked) : >243

Documented A3 EC50 as a ratio of that of NECA of Cn1nnc([C@H]2O[C@@H](n3cnc4c(N)nc(NC5CC6CCC5C6)nc43)[C@H](O)[C@@H]2O)n1.O=CO (some centres unmarked) : >315

Documented A3 EC50 as a ratio of that of NECA of Cn1nnc(C2OC(n3cnc4c(NC(CO)Cc5ccccc5)nc(NCCN5CCCCC5)nc43)C(O)C2O)n1 (centres unmarked) : >233

----------
Task for the reader: assign each of the following compounds its reported A3 EC50 as a ratio of that of NECA.
# target-or-system: adenosine 3 receptor (Homo sapiens)
# test: Agonist activity against adenosine 3 receptor (CHO cells, forskolin-enhanced cAMP/SPAP reporter)
# Assay type: cell-based
# test-settings: CHO cells transfected with human receptor; forskolin-enhanced cAMP via SPAP; mean of all the versions tested

Documented A3 EC50 as a ratio of that of NECA of CCn1nnc(C2OC(n3cnc4c(NCc5cccc(I)c5)nc(NC5CCNC5)nc43)C(O)C2O)n1 (stereo not drawn) [Example 23] : >336

Documented A3 EC50 as a ratio of that of NECA of "CC(C)n1nnc([C@H]2O[C@@H](n3cnc4c(NCc5ccccc5)nc(NCCc5cn(C)cn5)nc43)[C@H](O)[C@@H]2O)n1.O=CO" : >515

Documented A3 EC50 as a ratio of that of NECA of "CCn1nnc([C@H]2O[C@@H](n3cnc4c(NCC(c5ccccc5)c5ccccc5)nc(NCCN)nc43)[C@H](O)[C@@H]2O)n1" : >362

Documented A3 EC50 as a ratio of that of NECA of "CC(C)n1nnc([C@H]2O[C@@H](n3cnc4c(NCCc5ccccc5)nc(NCCc5cn(C)cn5)nc43)[C@H](O)[C@@H]2O)n1.O=CO" : >362

Documented A3 EC50 as a ratio of that of NECA of Cn1nnc(C2OC(n3cnc4c(NCC(c5ccccc5)c5ccccc5)nc(NCCN5CCOCC5)nc43)C(O)C2O)n1.O=CO.O=CO (stereo not drawn) : >160

Documented A3 EC50 as a ratio of that of NECA of "CCn1nnc([C@H]2O[C@@H](n3cnc4c(NCc5ccccc5)nc(NCCc5cn(C)cn5)nc43)[C@H](O)[C@@H]2O)n1" : >181

Documented A3 EC50 as a ratio of that of NECA of Cn1nnc(C2OC(n3cnc4c(N)nc(NC(CO)Cc5ccccc5)nc43)C(O)C2O)n1 (stereo not drawn) : >348

Documented A3 EC50 as a ratio of that of NECA of CCn1nnc(C2OC(n3cnc4c(NCCC5CCCCC5)nc(NC5CCNC5)nc43)C(O)C2O)n1 (stereo not drawn) [Example 72] : >158

Documented A3 EC50 as a ratio of that of NECA of CCC(CC)Nc1nc(NCCN2CCCC2)nc2c1ncn2C1OC(c2nnn(C)n2)C(O)C1O.O=CO.O=CO (stereo not drawn) : >267

Documented A3 EC50 as a ratio of that of NECA of CCn1nnc(C2OC(n3cnc4c(NCCc5ccccc5)nc(NCCN5CCCCC5)nc43)C(O)C2O)n1.O=CO.O=CO (stereo not drawn) : >195

Documented A3 EC50 as a ratio of that of NECA of CCn1nnc([C@H]2O[C@@H](n3cnc4c(NCC(c5ccccc5)c5ccccc5)nc(NC5CCS(=O)(=O)C5)nc43)[C@H](O)[C@@H]2O)n1.O=C(O)C(F)(F)F.O=C(O)C(F)(F)F (stereo partly drawn) : >420

Documented A3 EC50 as a ratio of that of NECA of "CCn1nnc([C@H]2O[C@@H](n3cnc4c(N)nc(NCCc5ccc(N)cc5)nc43)[C@H](O)[C@@H]2O)n1.O=CO" : >209

Documented A3 EC50 as a ratio of that of NECA of "CCn1nnc([C@H]2O[C@@H](n3cnc4c(NCCc5ccccc5)nc(NCCN5CCOCC5)nc43)[C@H](O)[C@@H]2O)n1" : >214

Documented A3 EC50 as a ratio of that of NECA of Cn1nnc(C2OC(n3cnc4c(NC(CO)Cc5ccccc5)nc(NC5CCC(N)CC5)nc43)C(O)C2O)n1 (stereo not drawn) : >201

Documented A3 EC50 as a ratio of that of NECA of Cn1nnc(C2OC(n3cnc4c(NC(CO)Cc5ccccc5)nc(NCCN5CCCC5)nc43)C(O)C2O)n1 (stereo not drawn) : >315

Documented A3 EC50 as a ratio of that of NECA of CC(C)n1nnc(C2OC(n3cnc4c(NC5CCCC5)nc(NCCN5CCCCC5)nc43)C(O)C2O)n1 (stereo not drawn) : >164

Documented A3 EC50 as a ratio of that of NECA of "Cn1cnc(CCNc2nc(NCC(c3ccccc3)c3ccccc3)c3ncn([C@@H]4O[C@H](c5nnn(C)n5)[C@@H](O)[C@H]4O)c3n2)c1.O=CO" : >286

Documented A3 EC50 as a ratio of that of NECA of CCC(CC)Nc1nc(NC2CCN(Cc3ccccc3)C2)nc2c1ncn2C1OC(c2nnn(CC)n2)C(O)C1O.O=CO.O=CO (stereo not drawn) : >158

Documented A3 EC50 as a ratio of that of NECA of CCn1nnc(C2OC(n3cnc4c(NCc5cccc(I)c5)nc(NC5CCNC5)nc43)C(O)C2O)n1 (stereo not drawn) [Example 76] : >155

Documented A3 EC50 as a ratio of that of NECA of CCC(CC)Nc1nc(NC2CCCC2O)nc2c1ncn2C1OC(c2nnn(C)n2)C(O)C1O.O=CO.O=CO (stereo not drawn) : >89

Documented A3 EC50 as a ratio of that of NECA of CCn1nnc(C2OC(n3cnc4c(NCCN5CCOCC5)nc(NC(CO)Cc5ccccc5)nc43)C(O)C2O)n1 (stereo not drawn) : >179

Documented A3 EC50 as a ratio of that of NECA of CC(=O)O.CC(=O)O.CCn1nnc(C2OC(n3cnc4c(NCCN5CCOCC5)nc(NCCc5cn(C)cn5)nc43)C(O)C2O)n1 (stereo not drawn) : >86

Documented A3 EC50 as a ratio of that of NECA of CCC(CC)Nc1nc(NC2CCC(N)CC2)nc2c1ncn2C1OC(c2nnn(C(C)C)n2)C(O)C1O.O=CO.O=CO (stereo not drawn) : >326

Documented A3 EC50 as a ratio of that of NECA of Cn1nnc(C2OC(n3cnc4c(NCC(c5ccccc5)c5ccccc5)nc(NC(CO)Cc5ccccc5)nc43)C(O)C2O)n1 (stereo not drawn) : >153

Documented A3 EC50 as a ratio of that of NECA of Cn1nnc(C2OC(n3cnc4c(NCC(c5ccccc5)c5ccccc5)nc(NCCN5CCCCC5)nc43)C(O)C2O)n1.O=CO.O=CO (stereo not drawn) : >329

Documented A3 EC50 as a ratio of that of NECA of "CC(=O)O.CCn1nnc([C@H]2O[C@@H](n3cnc4c(NCCC(C)(C)C)nc(NCCNc5ccccn5)nc43)[C@H](O)[C@@H]2O)n1" : >42

Documented A3 EC50 as a ratio of that of NECA of Cn1nnc(C2OC(n3cnc4c(NCc5cccc(I)c5)nc(NC(CO)Cc5ccccc5)nc43)C(O)C2O)n1 (stereo not drawn) : >446
